- target-under-test: Dihydrofolate reductase (Homo sapiens, UniProt P00374)
- Sequence (P00374 whole entry): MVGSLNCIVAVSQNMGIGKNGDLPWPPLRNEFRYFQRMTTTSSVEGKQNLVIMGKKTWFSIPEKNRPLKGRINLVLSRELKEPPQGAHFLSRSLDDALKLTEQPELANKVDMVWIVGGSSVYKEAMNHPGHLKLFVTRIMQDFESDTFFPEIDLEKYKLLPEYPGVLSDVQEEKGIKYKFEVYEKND
- procedure-details: Antimycobacterial activity against human dihydrofolate reductase (hDHFR)
pIC50: −log10 of the molar value.
Tag: 1 if measured pIC50 is not below 8, -1 if it is.

Hi, just wondering whether CCc1c(CNc2cc(OC)ccc2OC)cnc2nc(N)nc(N)c12 shows pIC50 of 8 or higher.
-1

Form field: pIC50 at least 8? Entry: Cc1ccc(Cl)c(NCc2cnc3nc(N)nc(N)c3c2C)c1
-1

Assess whether reported pIC50 for Nc1nc(N)c2cc(CNc3ccc(Cl)cc3)cnc2n1 sits at 8 or higher.
-1

Textbook exercise: given the entry Cc1c(CNc2ccc3ccc4cccc5ccc2c3c45)cnc2nc(N)nc(N)c12 , state whether its pIC50 is greater than or equal to 8.
1

Is pIC50 for Cc1c(CNc2cccc3c2CCCC3)cnc2nc(N)nc(N)c12 at or above 8?
-1

Check if pIC50 >= 8 (inclusive). Item: CCOc1ccc(NCc2cnc3nc(N)nc(N)c3c2C)cc1OC
-1

Does Cc1c(CNc2ccc(OC(F)F)cc2)cnc2nc(N)nc(N)c12 have a reported pIC50 of at least 8?
-1

Kindly determine if pIC50 recorded for CCOc1ccc(OCC)c(N(C)Cc2cnc3nc(N)nc(N)c3c2C)c1 is above or exactly 8.
-1

Textbook exercise: given the entry Cc1cc(Cl)ccc1NCc1cnc2nc(N)nc(N)c2c1C , state whether its pIC50 is greater than or equal to 8.
1

API: above_or_equal(metric=pIC50, cutoff=8) for item Cc1c(CNc2cccc3ccccc23)cnc2nc(N)nc(N)c12
1

pIC50 >= 8 for Cc1ccc(F)cc1NCc1cnc2nc(N)nc(N)c2c1C ?
-1

Kindly determine if pIC50 recorded for Cc1c(CNc2cccc3ncccc23)cnc2nc(N)nc(N)c12 is above or exactly 8.
1

hey, is pIC50 for this one >= 8? COc1cccc(SCc2cnc3nc(N)nc(N)c3c2C)c1
-1

All values here come from ChEMBL document CHEMBL1135401.
